target: Human immunodeficiency virus type 1 protease (Human immunodeficiency virus 1, UniProt Q72874)
Binary call on IC50 with cut-off 0.005 µM: strictly below means Satisfied, and equality or higher means Not satisfied.

CC(=O)N[C@@H](CSCc1ccccc1)C(=O)N[C@@H](Cc1ccccc1)[C@H](O)Cc1ccccc1C(=O)NC(C)(C)C : Not satisfied
CC(C)(C)NC(=O)c1ccccc1C[C@@H](O)[C@H](Cc1ccccc1)NC(=O)[C@H](CC(=O)OCc1ccccc1)NS(C)(=O)=O : Not satisfied
CC(C)(C)NC(=O)c1ccccc1C[C@@H](O)[C@H](Cc1ccccc1)NC(=O)[C@H](CC(=O)OCc1ccccc1)NC(N)=O : Not satisfied
CC(=O)N[C@@H](CS(=O)(=O)c1ccc2ccccc2n1)C(=O)N[C@@H](Cc1ccccc1)[C@H](O)Cc1ccccc1C(=O)NC(C)(C)C : Satisfied
CC(=O)N[C@H](CC(=O)OCc1ccccc1)C(=O)N[C@@H](Cc1ccccc1)[C@H](O)Cc1ccccc1C(=O)NC(C)(C)C : Not satisfied
CC(=O)N[C@H](CSCc1ccccc1)C(=O)N[C@@H](Cc1ccccc1)[C@H](O)Cc1ccccc1C(=O)NC(C)(C)C : Not satisfied
CC(=O)N[C@@H](CSc1ccc2ccccc2c1)C(=O)N[C@@H](Cc1ccccc1)[C@H](O)Cc1ccccc1C(=O)NC(C)(C)C : Not satisfied
CC(=O)N[C@H](CS(=O)(=O)c1ccc2ccccc2c1)C(=O)N[C@@H](Cc1ccccc1)[C@H](O)Cc1ccccc1C(=O)NC(C)(C)C : Satisfied
CC(C)(C)NC(=O)c1ccccc1C[C@@H](O)[C@H](Cc1ccccc1)NC(=O)[C@@H](CC(=O)OCc1ccccc1)NS(C)(=O)=O : Not satisfied
CC(=O)N[C@@H](CC(=O)OCc1ccccc1)C(=O)N[C@@H](Cc1ccccc1)[C@H](O)Cc1ccccc1C(=O)NC(C)(C)C : Not satisfied
CC(C)(C)NC(=O)c1ccccc1C[C@@H](O)[C@H](Cc1ccccc1)NC(=O)[C@H](CC(=O)NCc1ccc2ccccc2n1)NS(C)(=O)=O : Not satisfied
